Listed below: log10(IC50) values for each entry.
# assayed.system: gelatinase A (Homo sapiens, UniProt P08253)
# Construct: endogenous in cells
# Sequence (P08253 110-660): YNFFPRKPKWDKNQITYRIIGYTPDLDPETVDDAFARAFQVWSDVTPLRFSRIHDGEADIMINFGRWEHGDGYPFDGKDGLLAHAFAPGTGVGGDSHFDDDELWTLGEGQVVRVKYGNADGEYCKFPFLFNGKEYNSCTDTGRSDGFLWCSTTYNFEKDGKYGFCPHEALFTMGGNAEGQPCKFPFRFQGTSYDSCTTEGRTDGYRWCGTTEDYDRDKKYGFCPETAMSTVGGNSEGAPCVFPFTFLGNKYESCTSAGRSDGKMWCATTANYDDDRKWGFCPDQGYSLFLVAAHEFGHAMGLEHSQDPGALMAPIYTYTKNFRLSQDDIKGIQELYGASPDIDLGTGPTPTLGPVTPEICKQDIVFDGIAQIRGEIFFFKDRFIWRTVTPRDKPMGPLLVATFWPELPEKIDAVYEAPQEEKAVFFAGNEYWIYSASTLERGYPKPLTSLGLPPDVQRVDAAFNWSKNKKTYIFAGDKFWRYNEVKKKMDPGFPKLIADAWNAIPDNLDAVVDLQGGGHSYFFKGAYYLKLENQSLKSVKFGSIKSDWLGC
# experiment.summary: Inhibitory activity against gelatinase A (FITC-labeled gelatin degradation)
# run.parameters: progelatinase A from human normal skin dermal fibroblasts (HNDF), APMA-activated, 2 hours at 37° C., read-out: IC50 for inhibition of gelatinase A activity
Field: value | Transform: log10 | Quantity: IC50 | Unit: nM

## Input Return reported log10(IC50); argument: O=C(O)CNS(=O)(=O)c1ccc(OC(=O)c2ccccc2)cc1 [compound 6]
## Output 2.62

## Input Return reported log10(IC50); argument: Cc1ccc(C(=O)Nc2ccc(S(=O)(=O)NCC(=O)O)cc2)cc1 [compound 2]
## Output 2.04

## Input Return reported log10(IC50); argument: O=C(O)CNS(=O)(=O)c1ccc(NC(=O)c2ccccc2)cc1 [Example 2(10)]
## Output 2.82

## Input Return reported log10(IC50); argument: Cc1ccc(C(=O)Nc2ccc(S(=O)(=O)N[C@H](Cc3c[nH]c4ccccc34)C(=O)O)cc2)cc1 [Example 3(13)]
## Output 0.43

## Input Return reported log10(IC50); argument: CCCCCc1ccc(C(=O)Nc2ccc(S(=O)(=O)NCC(=O)O)cc2)cc1 [Example 2(35)]
## Output 1.11

## Input Return reported log10(IC50); argument: N=C(N)c1ccc(OC(=O)c2ccc(S(=O)(=O)N[C@@H](Cc3ccccc3)C(=O)O)cc2)cc1 [Example 10(1)]
## Output 2.85

## Input Return reported log10(IC50); argument: CCCCCc1ccc(C(=O)Nc2ccc(S(=O)(=O)N[C@H](Cc3ccccc3)C(=O)O)cc2)cc1 [Example 2(63)]
## Output 0.36

## Input Return reported log10(IC50); argument: O=C(O)CNS(=O)(=O)c1ccc(NC(=O)c2ccc(F)cc2)cc1 [Example 2(11)]
## Output 2.90

Where these numbers come from: patent US6403644B1
